target: gastric histamine H2 receptors (Rattus norvegicus, UniProt P25102); construct: the gastric secretion is measured by perfusion of a physiological solution at a constant speed in the stomach of the animal; from tissue; host or cells: stomach of the living atropinised rat (in vivo, endogenous receptor); test: antisecretory activity: antagonism of gastric hypersecretion induced by histamine in the atropinised rat (Ghosh and Schild modified according to Black); assay type: in vivo; settings: intravenous, single administration; histamine i.v. infusion 15 mcmol/kg/hour; atropinised rat; read-out: ID50 (dose which inhibits by 50% the gastric hypersecretion induced by histamine)
Sequence (P25102 whole entry, the tested form may be a part): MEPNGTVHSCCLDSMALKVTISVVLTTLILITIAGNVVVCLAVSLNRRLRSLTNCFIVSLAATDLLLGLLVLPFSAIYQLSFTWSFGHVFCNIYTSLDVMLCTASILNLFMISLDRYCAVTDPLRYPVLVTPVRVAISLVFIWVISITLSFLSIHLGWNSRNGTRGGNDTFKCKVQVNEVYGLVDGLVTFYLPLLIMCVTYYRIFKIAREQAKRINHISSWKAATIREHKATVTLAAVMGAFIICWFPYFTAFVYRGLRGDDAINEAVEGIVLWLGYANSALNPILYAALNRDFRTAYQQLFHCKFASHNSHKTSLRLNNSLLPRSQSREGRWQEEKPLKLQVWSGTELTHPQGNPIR
reported endpoint: ED50 (µmol/kg)
Numbers only here, please. The scale is µmol/kg.

molecule=O=C(NCCCOc1cccc(CN2CCCCCC2)c1)c1ccc[n+]([O-])c1 test_target="gastric histamine H2 receptors (Rattus norvegicus, UniProt P25102)" reported_endpoint=ED50 unit_info=µmol/kg reported_measurement=0.25

Task: Any idea what ED50 came out for O=C(NCCCOc1cc(CN2CCCCC2)ccn1)c1ccc[n+]([O-])c1 on gastric histamine H2 receptors (Rattus norvegicus, UniProt P25102)?
Result: 0.64

Task: Provide value of ED50 for this record tested with gastric histamine H2 receptors (Rattus norvegicus, UniProt P25102): CC1CCCN(Cc2cccc(OCCCNC(=O)c3ccc[n+]([O-])c3)c2)C1 (stereo not shown)
Result: 0.14

Task: # get_value(readout= ED50, system= gastric histamine H2 receptors (Rattus norvegicus, UniProt P25102)) for CCCCN(CCCC)Cc1cccc(OCCCNC(=O)c2ccc[n+]([O-])c2)c1
Result: 0.8

* * *

target: gastric histamine H2 receptors (Rattus norvegicus, UniProt P25102); construct: the gastric secretion is measured by perfusion of a physiological solution at a constant speed in the stomach of the animal; from tissue; host or cells: stomach of the living atropinised rat (in vivo, endogenous receptor); assay: antisecretory activity: antagonism of gastric hypersecretion induced by histamine in the atropinised rat (Ghosh and Schild modified according to Black); format: in vivo; settings: from ID50, i.v., cimetidine = 1
reported endpoint: Relative potency (cimetidine = 1)

compound="CC1CCN(Cc2cccc(OCCCNC(=O)c3ccc[n+]([O-])c3)c2)CC1 [SR 58037]" reported_measurement=7.31
compound="O=C(NCCCOc1cccc(CN2CCCCC2)c1)c1ccc[n+]([O-])c1 [SR 58017A]" reported_measurement=8.64
compound="CC1CCCN(Cc2cccc(OCCCNC(=O)c3ccc[n+]([O-])c3)c2)C1 (stereo not shown) [SR 58042]" reported_measurement=6.78
compound="O=C(NCCCOc1cc(CN2CCCCC2)ccn1)c1ccc[n+]([O-])c1 [SR 58065]" reported_measurement=1.48
compound="O=CNCCCOc1cccc(CN2CCCC2)c1 [Compound IV, reference compound]" reported_measurement=0.47

Task: Param item = O=C(NCCCOc1cccc(CN2CCCC2)c1)c1cccnc1 [Compound V, reference compound] ; retrieve measured Relative potency (cimetidine = 1).
Result: 0.43

Task: Could you share which Relative potency (cimetidine = 1) value was measured for O=C(NCCCOc1cccc(CN2CCCC2)c1)c1ccc[n+]([O-])c1 [CM 57891] ?
Result: 2.43

* * *

target: gastric histamine H2 receptors (Rattus norvegicus, UniProt P25102); construct: the gastric secretion is measured by perfusion of a physiological solution at a constant speed in the stomach of the animal; from tissue; host or cells: stomach of the living atropinised rat (in vivo, endogenous receptor); test: antisecretory activity: antagonism of gastric hypersecretion induced by histamine in the atropinised rat (Ghosh and Schild modified according to Black); assay type: in vivo; details: intravenous, single administration; histamine i.v. infusion 15 mcmol/kg/hour; atropinised rat; read-out: ID50 (dose which inhibits by 50% the gastric hypersecretion induced by histamine)
reported endpoint: ED50 (µmol/kg)
Write the value in µmol/kg as a bare number.

molecule="O=CNCCCOc1cccc(CN2CCCC2)c1 [Compound IV, reference compound]" unit_info=µmol/kg reported_measurement=2.01
molecule=CC1CCN(Cc2cccc(OCCCNC(=O)c3ccc[n+]([O-])c3)c2)CC1 unit_info=µmol/kg reported_measurement=0.13
molecule="O=C(NCCCOc1cccc(CN2CCCCC2)c1)c1ccc[n+]([O-])c1 [SR 58017A]" unit_info=µmol/kg reported_measurement=0.11
molecule=O=C(NCCCOc1cccc(CN2CCC(O)CC2)c1)c1ccc[n+]([O-])c1 unit_info=µmol/kg reported_measurement=0.71
molecule="O=C(NCCCOc1cccc(CN2CCCC2)c1)c1cccnc1 [Compound V, reference compound]" unit_info=µmol/kg reported_measurement=2.22

Below: the item to evaluate.
Task: May I ask what ED50 has been recorded for O=C(NCCCOc1cccc(CN2CCCC2)c1)c1ccc[n+]([O-])c1 ?
Result: 0.39

* * *

target: gastric histamine H2 receptors (Rattus norvegicus, UniProt P25102); construct: the gastric secretion is measured by perfusion of a physiological solution at a constant speed in the stomach of the animal; from tissue; host or cells: stomach of the living atropinised rat (in vivo, endogenous receptor); assay: antisecretory activity: antagonism of gastric hypersecretion induced by histamine in the atropinised rat (Ghosh and Schild modified according to Black); type: in vivo; conditions: from ID50, i.v., cimetidine = 1
reported endpoint: Relative potency (cimetidine = 1)
Quick one: just the number, no unit, thanks!

Look over these answered cases.
smiles_repr=CCCCN(CCCC)Cc1cccc(OCCCNC(=O)c2ccc[n+]([O-])c2)c1 reported_measurement=1.19
smiles_repr=O=C(NCCCOc1cccc(CN2CCCCCC2)c1)c1ccc[n+]([O-])c1 reported_measurement=3.80

// next entry
Task: Quick one: Relative potency (cimetidine = 1) for O=C(NCCCOc1cccc(CN2CCC(O)CC2)c1)c1ccc[n+]([O-])c1 ?
Result: 1.34
